- Study target: T1, hu-CD74 antigen (R&D SYSTEMS catalog #3590-CD-050) (human, UniProt P04233-2 73-232, limits assumed)
- T1 construct: Bought antigen; also called rhCD74; human CD74
- T1 sequence (looked up): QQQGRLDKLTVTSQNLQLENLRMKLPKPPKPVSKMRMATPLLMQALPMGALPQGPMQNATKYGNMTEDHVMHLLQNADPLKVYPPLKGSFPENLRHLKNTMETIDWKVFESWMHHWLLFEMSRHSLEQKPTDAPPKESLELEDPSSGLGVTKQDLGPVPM
- Assay overview: SPR (Biacore T200), IgG captured on anti-human Fc, rhCD74 analyte
Each entry below lists one item and its recorded kon value.
// note: answer is a bare numeric in M⁻¹ s⁻¹

Recorded results for 4 binders are shown here.
Binder | kon / M⁻¹ s⁻¹
HC 1251_B08 (wt)/LC 1275_C10 (wt) (antibody, human IgG1, kappa, V domains shown, IgG format) VH: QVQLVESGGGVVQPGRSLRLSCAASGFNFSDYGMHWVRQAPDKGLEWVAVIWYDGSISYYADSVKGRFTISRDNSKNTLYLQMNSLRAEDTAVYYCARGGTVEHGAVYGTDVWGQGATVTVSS VL: DIQMTQSPSSLSASVGDRVTITCRASQGVSSWLAWYQQKPEKAPKSLIYSARYLQSGVPSRFSGSGSGTDFTLTISSLQPEDFATYYCQQYNLYPLTFGGGTKVEIKR | 623000
HC 1251_B08 (g)/LC 1337_A10 (wt) (antibody, human IgG1, kappa, V domains shown, IgG format) VH: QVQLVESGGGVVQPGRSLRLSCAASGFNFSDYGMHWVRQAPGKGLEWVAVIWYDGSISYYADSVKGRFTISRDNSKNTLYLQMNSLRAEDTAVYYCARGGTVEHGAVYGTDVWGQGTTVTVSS VL: DIQMTQSPSSLSASVGDRVTITCRASQGISSWVAWYQQKPEKAPKSLIYGSSRLQSGVPSRFSGSGSGTDFTLTISSLQPEDFATYYCQQYNTYPLTFGGGTKVEIKR | 312000
HC 1251_B08 (wt)/LC 1337_A09 (g) (antibody, human IgG1, kappa, V domains shown, IgG format) VH: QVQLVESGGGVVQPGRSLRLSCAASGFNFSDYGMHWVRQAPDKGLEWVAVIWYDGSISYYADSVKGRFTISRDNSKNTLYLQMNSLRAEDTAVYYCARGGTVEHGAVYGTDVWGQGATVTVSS VL: DIQMTQSPSSVSASVGDRVTITCRASQGIGSWLAWYQQKPGKAPKLLIYAADRLQSGVPSRFSGSGSGTDFTLTISSLQPEDFATYYCQQYHTYPLTFGGGTKVEIKR | 332000
HC 1251_B08 (g)/LC 1337_A09 (wt) (antibody, human IgG1, kappa, V domains shown, IgG format) VH: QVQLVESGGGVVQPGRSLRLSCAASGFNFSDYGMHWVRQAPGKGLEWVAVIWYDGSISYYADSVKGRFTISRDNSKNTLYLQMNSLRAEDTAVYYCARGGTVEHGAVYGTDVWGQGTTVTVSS VL: DIQMTQSPSSLSASVGDRVTITCRASQGIGSWLAWYQQKPEKAPKSLIYAADRLQSGVPSRFSGSGSGTDFTLTISSLQPEDFATYYCQQYHTYPLTFGGGTKVEIKR | 166000

Let us examine a further case.
[Q] Name the recorded kon of the binder listed here: HC 1251_A06 (g)/LC 1275_C10 (g) (antibody, human IgG1, kappa, V domains shown, IgG format) VH: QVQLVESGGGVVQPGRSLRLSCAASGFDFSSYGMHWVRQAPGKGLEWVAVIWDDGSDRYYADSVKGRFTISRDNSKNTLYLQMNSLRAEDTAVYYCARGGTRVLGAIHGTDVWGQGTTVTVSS VL: DIQMTQSPSSVSASVGDRVTITCRASQGVSSWLAWYQQKPGKAPKLLIYSARYLQSGVPSRFSGSGSGTDFTLTISSLQPEDFATYYCQQYNLYPLTFGGGTKVEIKR
[A] 705000
